Examples of binders with documented Ki follow.
- target: T1, hMC1-R (human, UniProt Q01726 1-317)
- T1 construct: whole, on cells; Assayed as membranes of CHO-K1 cells expressing the receptor; also called hMC-R receptor subtype 1; melanocyte-specific receptor (MC1-R)
- T1 sequence (Q01726 whole entry): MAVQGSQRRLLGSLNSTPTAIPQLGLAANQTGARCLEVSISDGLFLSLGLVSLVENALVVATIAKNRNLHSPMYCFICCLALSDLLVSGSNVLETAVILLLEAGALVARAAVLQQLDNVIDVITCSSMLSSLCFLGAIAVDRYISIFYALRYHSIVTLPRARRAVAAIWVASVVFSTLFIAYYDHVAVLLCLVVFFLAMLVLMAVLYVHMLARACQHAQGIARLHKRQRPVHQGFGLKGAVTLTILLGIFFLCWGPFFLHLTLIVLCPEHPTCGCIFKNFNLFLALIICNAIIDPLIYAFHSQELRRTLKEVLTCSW
- assayComment: competition with [125I]-NDP-α-MSH, CHO-K1 membranes
Bridge positions count the residues as written; N and C are the ends. Square brackets hold non-standard residues; d marks the D form. Bta = N[C@@H](Cc1csc2ccccc12)C(=O)O; Cha = N[C@@H](CC1CCCCC1)C(=O)O; Nle = CCCC[C@H](N)C(=O)O; Ahx = NCCCCCC(=O)O; Ava = NCCCCC(=O)O; GABA = NCCCC(=O)O; βAla = NCCC(=O)O
experimentalReadout: Ki (nM)

[
  {
    "binder": "Ac-RDH[dF]RWAK-NH2 (lactam 2-8) [Ac-Arg-c(Asp-His-D-Phe-Arg-Trp-Ala-Lys)-NH2]",
    "numericReadout": 0.68
  },
  {
    "binder": "Ac-[Nle]CH[dF]R[dW][βAla]C-NH2 (disulfide 2-8; SMILES CCCC[C@H](NC(C)=O)C(=O)N[C@H]1CSSC[C@@H](C(N)=O)NC(=O)CCNC(=O)[C@@H](Cc2c[nH]c3ccccc23)NC(=O)[C@H](CCCNC(=N)N)NC(=O)[C@@H](Cc2ccccc2)NC(=O)[C@H](Cc2c[nH]cn2)NC1=O) [Ac-Nle-c(Cys-His-D-Phe-Arg-D-Trp-β-Ala-Cys)-NH2]",
    "numericReadout": 0.323
  },
  {
    "binder": "Ac-LCH[dF]RW[GABA]C-NH2 (disulfide 2-8) [Ac-Leu-c(Cys-His-D-Phe-Arg-Trp-Gaba-Cys)-NH2]",
    "numericReadout": 0.216
  },
  {
    "binder": "Ac-[Nle]D[dA]H[dF]RWK-NH2 (lactam 2-8; SMILES CCCC[C@H](NC(C)=O)C(=O)N[C@H]1CC(=O)NCCCC[C@@H](C(N)=O)NC(=O)[C@H](Cc2c[nH]c3ccccc23)NC(=O)[C@H](CCCNC(=N)N)NC(=O)[C@@H](Cc2ccccc2)NC(=O)[C@H](Cc2c[nH]cn2)NC(=O)[C@@H](C)NC1=O) [Ac-Nle-c(Asp-D-Ala-His-D-Phe-Arg-Trp-Lys)-NH2]",
    "numericReadout": 0.659
  },
  {
    "binder": "Ac-[Nle]DH[dF]RW[Ava]K-NH2 (lactam 2-8) [Ac-Nle-c(Asp-His-D-Phe-Arg-Trp-Apn-Lys)-NH2]",
    "numericReadout": 0.999
  },
  {
    "binder": "Ac-[Cha]CH[dF]RW[GABA]C-NH2 (disulfide 2-8) [Ac-Cha-c(Cys-His-D-Phe-Arg-Trp-Gaba-Cys)-NH2]",
    "numericReadout": 0.107
  },
  {
    "binder": "Ac-[Nle]D[dA]H[dF]R[Bta]K-NH2 (lactam 2-8; SMILES CCCC[C@H](NC(C)=O)C(=O)N[C@H]1CC(=O)NCCCC[C@@H](C(N)=O)NC(=O)[C@H](Cc2csc3ccccc23)NC(=O)[C@H](CCCNC(=N)N)NC(=O)[C@@H](Cc2ccccc2)NC(=O)[C@H](Cc2c[nH]cn2)NC(=O)[C@@H](C)NC1=O) [Ac-Nle-c(Asp-D-Ala-His-D-Phe-Arg-Bal-Lys)-NH2]",
    "numericReadout": 4.12
  },
  {
    "binder": "Ac-[Nle]D[dA]H[dF]R[Bta]AK-NH2 (lactam 2-9) [Ac-Nle-c(Asp-D-Ala-His-D-Phe-Arg-Bal-Ala-Lys)-NH2]",
    "numericReadout": 4.89
  },
  {
    "binder": "Ac-[Nle]CH[dF]RW[Ahx]C-NH2 (disulfide 2-8) [Ac-Nle-c(Cys-His-D-Phe-Arg-Trp-Ahx-Cys)-NH2]",
    "numericReadout": 0.0132
  }
]

Where do the numbers come from? From patent US20120135923A1.
